Where do these numbers come from? They come from the supplement of paper PMC10567573.

B1: TRIM15 (parent)
chain: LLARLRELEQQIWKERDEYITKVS

Variants of: B1
Experiment: protein stability index of a GFP-peptide fusion (GPS, HEK-293T) (PSI 1-6); higher = more stable;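 further: lentivirally expressed fusions sorted by FACS into six bins by GFP to DsRed ratio, PSI derived from sequencing read proportions per bin multiplied by bin number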
Conditions: c terminus: a fixed tail appended
Readout: protein stability index
Give your answer as a number; write no unit.

> print(dat)
   variant.designation  experimental.value
1                 W13I                1.32
2                  L8P                2.55

Turning to the following variant.
Challenge: Find the measured protein stability index of `A3F` and report it.
Response given: 2.9
